Target: Human AMPK α2ß2γ1 (Homo sapiens, UniProt O43741+P54646)
Construct: The full length cDNAs of human AMPK ß2 (NM_005399.3) and human AMPK α2 (NM_006252.3); The full length cDNAs of human AMPK ß2 (NM_005399.3); 6xHis (N); made in house; host or cells: Escherichia coli BL21 CodonPlus (DE3)-RIL
Sequence (P54646 whole entry): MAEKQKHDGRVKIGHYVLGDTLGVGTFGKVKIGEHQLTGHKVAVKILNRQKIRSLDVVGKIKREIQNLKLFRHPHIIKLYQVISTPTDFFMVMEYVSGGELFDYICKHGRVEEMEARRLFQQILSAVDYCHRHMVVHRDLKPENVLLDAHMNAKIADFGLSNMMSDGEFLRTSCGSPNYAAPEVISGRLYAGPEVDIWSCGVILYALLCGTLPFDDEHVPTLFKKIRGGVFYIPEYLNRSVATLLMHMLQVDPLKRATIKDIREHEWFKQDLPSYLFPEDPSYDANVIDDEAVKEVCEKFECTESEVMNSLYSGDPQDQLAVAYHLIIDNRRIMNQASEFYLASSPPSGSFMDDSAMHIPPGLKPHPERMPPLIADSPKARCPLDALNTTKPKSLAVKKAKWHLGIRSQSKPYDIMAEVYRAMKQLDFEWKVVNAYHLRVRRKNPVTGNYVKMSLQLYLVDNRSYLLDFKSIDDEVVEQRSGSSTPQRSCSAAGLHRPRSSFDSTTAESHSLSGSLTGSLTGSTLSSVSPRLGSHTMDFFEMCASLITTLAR
Sequence (O43741 whole entry): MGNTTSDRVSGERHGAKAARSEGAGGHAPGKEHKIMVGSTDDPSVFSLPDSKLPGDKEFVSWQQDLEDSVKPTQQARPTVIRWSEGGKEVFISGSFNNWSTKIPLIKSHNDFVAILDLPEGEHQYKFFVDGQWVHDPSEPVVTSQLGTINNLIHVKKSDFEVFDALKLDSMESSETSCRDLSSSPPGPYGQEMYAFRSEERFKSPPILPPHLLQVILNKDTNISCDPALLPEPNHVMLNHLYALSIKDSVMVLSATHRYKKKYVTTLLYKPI
Sequence (P54619 whole entry partner): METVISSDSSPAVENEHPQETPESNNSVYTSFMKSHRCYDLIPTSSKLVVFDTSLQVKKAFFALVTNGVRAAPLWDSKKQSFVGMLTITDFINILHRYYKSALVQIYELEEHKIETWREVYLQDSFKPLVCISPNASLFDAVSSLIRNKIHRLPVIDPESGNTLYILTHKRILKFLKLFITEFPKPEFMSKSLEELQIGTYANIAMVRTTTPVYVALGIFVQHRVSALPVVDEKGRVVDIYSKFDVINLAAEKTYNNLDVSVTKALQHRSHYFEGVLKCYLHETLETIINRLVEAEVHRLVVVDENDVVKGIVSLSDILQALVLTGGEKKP
Assay: Test Example 2: evaluation of an activator for AMP-activated protein kinase (AMPK), LabChip mobility shift assay with CaMKK2-phosphorylated enzyme
Format: biochemical
Conditions: FL-Peptide 7 substrate, 25° C., 2 hours
Classification by EC150 (compound concentration showing 150% relative to the control (100%)) | ranges: low-valued: < 4 nM; mid-valued: ≥ 4 nM and < 9 nM; high-valued: ≥ 9 nM

Answered cases to consult:
- COMPOUND: "O[C@@H]1CO[C@H]2[C@@H]1OC[C@H]2Oc1nc2nc(NC3CCc4cc(-c5ccnnc5)cc(F)c43)c(Cl)cc2[nH]1 (stereo partly drawn)"
  CLASS: "low-valued"
- COMPOUND: "O[C@@H]1CO[C@H]2[C@@H]1OC[C@H]2Oc1nc2nc(N[C@H]3CCc4cc(-c5cnc(C6CC6)nc5)cc(F)c43)c(Cl)cc2[nH]1"
  CLASS: "high-valued"
- COMPOUND: "O[C@@H]1CO[C@H]2[C@@H]1OC[C@H]2Oc1nc2nc(N[C@H]3CCc4cc(-c5cnc(C(F)(F)F)nc5)cc(F)c43)c(Cl)cc2[nH]1"
  CLASS: "high-valued"

Q: Class (by measured EC150 (compound concentration showing 150% relative to the control (100%))) for CC(C)n1cc(-c2cc(F)c3c(c2)CC[C@@H]3Nc2nc3nc(O[C@@H]4CO[C@H]5[C@@H]4OC[C@H]5O)[nH]c3cc2Cl)ccc1=O
Result: mid-valued

Q: Class (by measured EC150 (compound concentration showing 150% relative to the control (100%))) for Cc1ccc(-c2cc(F)c3c(c2)CC[C@@H]3Nc2nc3nc(O[C@@H]4CO[C@H]5[C@@H]4OC[C@H]5O)[nH]c3cc2Cl)cn1
Result: mid-valued

Q: Class (by measured EC150 (compound concentration showing 150% relative to the control (100%))) for COCCOc1cc(F)c2c(c1)CCC2Nc1nc2nc(O[C@@H]3CO[C@H](CO)C3)[nH]c2cc1Cl (stereo partly drawn)
Result: low-valued

Q: Class (by measured EC150 (compound concentration showing 150% relative to the control (100%))) for O[C@@H]1CO[C@H]2[C@@H]1OC[C@H]2Oc1nc2nc(NC3CCc4cc(OC5CCOCC5)cc(F)c43)c(Cl)cc2[nH]1 (stereo partly drawn)
Result: mid-valued

Q: Class (by measured EC150 (compound concentration showing 150% relative to the control (100%))) for COCC1CC1c1cc(F)c2c(c1)CC[C@@H]2Nc1nc2nc(O[C@@H]3CO[C@H]4[C@@H]3OC[C@H]4O)[nH]c2cc1Cl (stereo partly drawn)
Result: low-valued
